- TEST_SYSTEM: M1 muscarinic receptor (Homo sapiens, UniProt P11229)
- Construct: expressed in transfected cells; host or cells: CHO (M1-CHO)
- Sequence (P11229 whole entry): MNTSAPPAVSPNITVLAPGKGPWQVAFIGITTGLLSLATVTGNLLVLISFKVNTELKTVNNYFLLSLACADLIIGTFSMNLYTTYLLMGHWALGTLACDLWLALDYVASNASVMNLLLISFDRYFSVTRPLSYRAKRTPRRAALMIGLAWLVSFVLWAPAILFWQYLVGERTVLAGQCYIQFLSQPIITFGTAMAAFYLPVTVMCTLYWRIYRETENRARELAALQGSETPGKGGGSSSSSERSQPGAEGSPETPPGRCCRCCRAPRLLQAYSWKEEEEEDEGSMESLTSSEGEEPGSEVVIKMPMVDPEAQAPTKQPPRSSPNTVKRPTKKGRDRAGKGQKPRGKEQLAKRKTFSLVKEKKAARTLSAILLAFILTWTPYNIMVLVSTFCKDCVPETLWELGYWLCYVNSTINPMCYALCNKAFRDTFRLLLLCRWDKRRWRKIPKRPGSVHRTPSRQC
- EXPERIMENT_DESCRIPTION: Functional mobilization of intracellular calcium (FLIPR) in M1-CHO cells
- Format: cell-based
- STATED_CONDITIONS: M1 receptor, calcium mobilization; read-out: M1 Efficacy
For each of the compounds below, state its Emax.

The recorded Emax for entry `O=C1CC2(CCN(C[C@@H]3C[C@H]4C=C[C@H]3C4)CC2)c2ccccc21` equals < 65%

The recorded Emax for entry CC(=O)N1CC2(CCN(C3CCC(C(F)(F)F)CC3)CC2)c2cc(F)ccc21 (centres unmarked) equals 65 to 85%

The recorded Emax for entry Cc1ccc2c(c1)C1(CCN(C3CC4CCC3C4)CC1)CN2S(=O)(=O)c1ccccc1 (centres unmarked) equals 65 to 85%

The recorded Emax for entry COCCOC(=O)N1C2CCC1CC(N1CCC3(CCc4ccccc43)CC1)C2 (centres unmarked) equals 65 to 85%

The recorded Emax for entry CC(=O)N[C@H]1CC2(CCN(C3C[C@H]4CC[C@@H]3C4)CC2)c2ccccc21 (some centres unmarked) equals > 85%

The recorded Emax for entry CC(=O)NC1CC2(CCN(C3CCCCCC3)CC2)c2ccccc21 (centres unmarked) equals > 85%

The recorded Emax for entry `Clc1ccc2c(c1)C1(CCN(C3CCOCC3)CC1)CN2` equals 65 to 85%

The recorded Emax for entry `CCOC(=O)N1CCC(N2CCC3(CC2)CNc2ccc(Cl)cc23)CC1` equals 65 to 85%

###

For each of the compounds below, state its Emax.
- TEST_SYSTEM: M4 muscarinic receptor (Homo sapiens, UniProt P08173)
- Construct: expressed in transfected cells; host or cells: CHO (M4-CHO)
- Sequence (P08173 whole entry): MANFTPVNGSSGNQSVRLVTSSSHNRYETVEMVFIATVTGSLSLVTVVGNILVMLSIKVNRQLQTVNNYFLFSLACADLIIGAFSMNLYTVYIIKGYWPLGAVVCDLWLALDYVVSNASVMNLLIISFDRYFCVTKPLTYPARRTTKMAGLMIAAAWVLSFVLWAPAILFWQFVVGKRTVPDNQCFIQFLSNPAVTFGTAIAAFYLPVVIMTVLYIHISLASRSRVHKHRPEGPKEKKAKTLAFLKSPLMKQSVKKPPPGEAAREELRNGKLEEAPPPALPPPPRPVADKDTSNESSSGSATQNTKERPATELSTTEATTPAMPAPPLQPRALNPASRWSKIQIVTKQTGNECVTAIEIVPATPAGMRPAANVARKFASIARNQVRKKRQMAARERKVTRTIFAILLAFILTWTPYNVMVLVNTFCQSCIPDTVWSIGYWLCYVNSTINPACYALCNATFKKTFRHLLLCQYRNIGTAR
- EXPERIMENT_DESCRIPTION: Functional mobilization of intracellular calcium (FLIPR) in M4-CHO cells
- Format: cell-based
- STATED_CONDITIONS: M4 receptor, calcium mobilization; read-out: M4 Efficacy

The recorded Emax for entry COC(=O)N1C2CCC1CC(N1CCC3(CC1)COc1ccc(F)cc13)C2 (stereo not shown) equals > 85%

The recorded Emax for entry COc1ccc(OC(=O)N2C3CCC2CC(N2CCC4(CC2)COc2ccc(F)cc24)C3)cc1 (stereo not shown) equals 65 to 85%

The recorded Emax for entry `CCOC(=O)N[C@H]1CC2(CCN(C[C@H]3C[C@H]4CC[C@H]3C4)CC2)c2ccccc21` equals < 65%

The recorded Emax for entry `C1=C[C@H]2C[C@H]1C[C@H]2CN1CCC2(CCc3ccccc32)CC1` equals < 65%

###

- TEST_SYSTEM: M4 muscarinic receptor (Homo sapiens)
- Construct: expressed in transfected cells; host or cells: CHO (M4-CHO)
- EXPERIMENT_DESCRIPTION: Functional mobilization of intracellular calcium (FLIPR) in M4-CHO cells
- Assay type: cell-based
- STATED_CONDITIONS: Table 4; 100% efficacy is the maximum response obtained with the Carbachol control
QUANTITY_NAME: Emax

The recorded Emax for entry CC(=O)NC1CC2(CCN(C3CCN(C(=O)c4cccc(C(F)(F)F)c4)CC3)CC2)c2ccccc21 (stereo not shown) [compound 978] equals < 25%

The recorded Emax for entry CC(=O)N[C@H]1CCC2(CCN(C3CCN(C(=O)OC(C)(C)C)CC3)CC2)c2ccccc21 [compound 912] equals < 25%

The recorded Emax for entry CN(C)C(=O)N1CC2(CCN(C3CCN(C(=O)c4ccccn4)CC3)CC2)c2cc(F)ccc21 [compound 718] equals < 25%

The recorded Emax for entry CCOC(=O)N1CCC(N2CCC3(CC2)CN(C(C)=O)c2c(CC)cccc23)CC1 [compound 859] equals 25 to 100%

The recorded Emax for entry CCCC#CCOC(=O)N1C2CCC1CC(N1CCC3(CC1)CN(C(C)=O)c1ccccc13)C2 (stereo not shown) [compound 820] equals 25 to 100%

The recorded Emax for entry CN(C)C(=O)N1CC2(CCN(C3CCN(c4ccncc4)CC3)CC2)c2cc(F)ccc21 [compound 458] equals < 25%

The recorded Emax for entry O=C(N[C@H]1CC2(CCN([C@@H]3C[C@@H]4CC[C@@H]3C4)CC2)c2ccccc21)c1ccoc1 [compound 868] equals 25 to 100%

The recorded Emax for entry CC1(C)C(=O)c2ccccc2C12CCN([C@H]1C[C@@H]3CC[C@@H]1C3)CC2 [compound 483] equals < 25%

The recorded Emax for entry CCCCNC(=O)N1CC2(CCN(C3CCN(C(=O)OCC)CC3)CC2)c2ccccc21 [compound 721] equals 25 to 100%

The recorded Emax for entry O=C(N[C@H]1CC2(CCN(CC3CCCCC3)CC2)c2ccccc21)C1CCCC1 [compound 448] equals < 25%

The recorded Emax for entry O=C(N[C@H]1CC2(CCN(C3CCCCC3)CC2)c2ccccc21)c1ccoc1 [compound 801] equals < 25%

The recorded Emax for entry CC(=O)N1CC2(CCN(C3CCN(c4cnc(C)c(C)n4)CC3)CC2)c2ccccc21 [compound 953] equals 25 to 100%

The recorded Emax for entry CC(=O)NC1CCC2(CCN(CCC3CCCN(S(C)(=O)=O)C3)CC2)c2ccccc21 (stereo not shown) [compound 541] equals < 25%

The recorded Emax for entry CCCCOC(=O)N1C2CCC1CC(N1CCC3(CC1)CN(C(C)=O)c1ccccc13)C2 (stereo not shown) [compound 604] equals 25 to 100%

The recorded Emax for entry CC(C)OC(=O)N1CCCC(N2CCC3(CC2)CN(C(=O)N(C)C)c2ccc(F)cc23)CC1 (stereo not shown) [compound 704] equals 25 to 100%

The recorded Emax for entry CC(=O)N1CC2(CCN(C[C@@H]3CCN(C(=O)OC(C)C)C3)CC2)c2ccccc21 [compound 996] equals < 25%

###

For each of the molecules below, state its Emax.
- TEST_SYSTEM: M4 muscarinic receptor (Homo sapiens)
- Construct: expressed in transfected cells; host or cells: CHO (M4-CHO)
- EXPERIMENT_DESCRIPTION: Functional mobilization of intracellular calcium (FLIPR) in M4-CHO cells
- Format: cell-based
- STATED_CONDITIONS: Table 4; 100% efficacy is the maximum response obtained with the Carbachol control

The recorded Emax for entry CCC(=O)CCN1CCC(N2CCC3(CC2)CN(C(C)=O)c2ccc(F)cc23)CC1 [compound 454] equals < 25%

The recorded Emax for entry CCC#CCOC(=O)N1CCC(N2CCC3(CC2)CN(C(C)=O)c2ccccc23)CC1 [compound 656] equals 25 to 100%

The recorded Emax for entry CC(=O)N1CC2(CCN(CC3=C(C)C=CCC3(C)C)CC2)c2cc(F)ccc21 [compound 600] equals < 25%

The recorded Emax for entry CC1=C(CCN2CCC3(CC2)C[C@H](NC(=O)C2CCCC2)c2ccccc23)C(C)(C)CCC1 [compound 873] equals < 25%

The recorded Emax for entry CC(=O)N[C@H]1CC2(CCN(CC(=O)N3C[C@@H](C)O[C@@H](C)C3)CC2)c2ccccc21 [compound 782] equals < 25%

The recorded Emax for entry CCOC(=O)N1CCC(N2CCC3(CC2)CN(C(=O)C(=O)CC)c2ccc(F)cc23)CC1 [compound 522] equals 25 to 100%

The recorded Emax for entry CC(=O)N1CC2(CCN(C3CCN(c4nc(C)cs4)CC3)CC2)c2ccccc21 [compound 471] equals 25 to 100%

The recorded Emax for entry CN(C)C(=O)N1CC2(CCN(C3CCN(C(=O)C4(C(F)(F)F)CC4)CC3)CC2)c2cc(F)ccc21 [compound 727] equals 25 to 100%

The recorded Emax for entry O=C1CC2(CCN([C@@H]3C[C@H]4CC[C@@H]3C4)CC2)c2ccc(Cl)cc21 [compound 901] equals 25 to 100%

The recorded Emax for entry CC(=O)N[C@H]1CCC2(CCN(C3CCC(C(C)(C)C)CC3)CC2)c2ccccc21 (stereo partly shown) [compound 646] equals < 25%

The recorded Emax for entry CCCC(=O)N[C@H]1CC2(CCN([C@@H]3CC4CC[C@@H]3C4)CC2)c2ccccc21 [compound 1017] equals 25 to 100%

The recorded Emax for entry COC(=O)N1CC[C@H](CN2CCC3(CC2)CN(C(=O)N(C)C)c2ccc(F)cc23)C1 [compound 807] equals 25 to 100%

The recorded Emax for entry CC(=O)N1CC2(CCN(C3CCN(c4nc5ccccc5s4)CC3)CC2)c2ccccc21 [compound 545] equals < 25%

The recorded Emax for entry CC(C)OC(=O)N1CC[C@@H](CN2CCC3(CC2)CN(C(=O)N(C)C)c2ccc(F)cc23)C1 [compound 558] equals 25 to 100%

The recorded Emax for entry CCOC(=O)N1CCC(N2CCC3(CC2)CN(C(=O)N2CCOCC2)c2ccccc23)CC1 [compound 903] equals 25 to 100%

The recorded Emax for entry COC(=O)N1CCC(N2CCC3(CC2)CN(C(C)=O)c2ccccc23)CC1 [compound 753] equals 25 to 100%

The values you see were collected from patent US7786141B2.
